molecular target: 5-hydroxytryptamine receptor 7 (Homo sapiens, UniProt P34969); assay: Displacement of [3H]-5-CT from human 5HT7 receptor expressed in HEK293 cells measured after 1 hr by liquid scintillation counter method; type: cell-based; conditions: read-out: Ki
Sequence (P34969 whole entry): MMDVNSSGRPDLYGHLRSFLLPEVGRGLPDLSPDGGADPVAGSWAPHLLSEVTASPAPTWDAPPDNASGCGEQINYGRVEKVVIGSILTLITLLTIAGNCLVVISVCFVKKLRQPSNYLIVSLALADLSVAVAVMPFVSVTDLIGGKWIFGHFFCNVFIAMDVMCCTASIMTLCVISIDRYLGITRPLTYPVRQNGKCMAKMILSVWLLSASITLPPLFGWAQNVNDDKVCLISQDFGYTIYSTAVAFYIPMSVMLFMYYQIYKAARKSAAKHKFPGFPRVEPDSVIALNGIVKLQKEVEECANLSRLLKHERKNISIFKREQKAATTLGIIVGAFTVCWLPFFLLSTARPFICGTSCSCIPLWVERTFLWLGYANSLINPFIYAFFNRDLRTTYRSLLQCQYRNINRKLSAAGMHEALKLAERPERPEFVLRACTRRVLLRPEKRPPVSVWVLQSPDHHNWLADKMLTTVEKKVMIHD
pKi: −log10 of the molar value.
endpoint: pKi

| structure_smiles_string | reported_result |
| --- | --- |
| O=S(=O)(c1ccccc1)n1cc(-c2c[n+]3cccnc3[nH]2)c2ccccc21.[Br-] | < 5.00 |
| Cc1nc(N)[nH]c1-c1cn(S(=O)(=O)c2cccc3ccccc23)c2ccccc12.Cl | 5.60 |
| CCC(=O)Nc1nc(C)c(-c2cn(S(=O)(=O)c3ccccc3)c3ccc(OC)cc23)[nH]1 | < 5.00 |
| COc1ccc2c(c1)c(-c1[nH]c(NC(=O)Cc3ccccc3)nc1C)cn2S(=O)(=O)c1ccccc1 | < 5.00 |
| Cc1nc(N)[nH]c1-c1ccc2ccn(S(=O)(=O)c3ccccc3)c2c1.Cl | 6.11 |
| CC(=O)Nc1nc(C)c(-c2cn(S(=O)(=O)c3ccccc3)c3ccccc23)[nH]1 | < 5.00 |

----------
molecular target: 5-hydroxytryptamine receptor 6 (Homo sapiens, UniProt P50406)
Sequence (P50406 whole entry): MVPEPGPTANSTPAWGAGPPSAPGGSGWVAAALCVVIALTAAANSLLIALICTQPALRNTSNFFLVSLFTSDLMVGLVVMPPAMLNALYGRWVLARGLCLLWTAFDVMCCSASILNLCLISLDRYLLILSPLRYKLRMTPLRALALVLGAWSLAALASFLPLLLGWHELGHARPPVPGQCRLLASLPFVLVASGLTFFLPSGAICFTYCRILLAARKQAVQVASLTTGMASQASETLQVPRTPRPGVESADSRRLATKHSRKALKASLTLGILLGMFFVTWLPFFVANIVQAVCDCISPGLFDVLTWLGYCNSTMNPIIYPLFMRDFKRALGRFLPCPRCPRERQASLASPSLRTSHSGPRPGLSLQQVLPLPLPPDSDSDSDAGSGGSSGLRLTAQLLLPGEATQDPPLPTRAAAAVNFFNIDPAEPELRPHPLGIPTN
Could you please mark yes (1) for values of Ki below 0.01 µM and no (0) for values at or above it?

| structure_smiles_string | class_name |
| --- | --- |
| COc1ccc2c(c1)c(-c1[nH]c(NCC(F)F)nc1C)cn2S(=O)(=O)c1ccccc1 | no (0) |
| Cc1nc(N)[nH]c1-c1ccc2ccn(S(=O)(=O)c3ccccc3)c2c1.Cl | yes (1) |
| CCC(=O)Nc1nc(C)c(-c2cn(S(=O)(=O)c3ccccc3)c3ccc(OC)cc23)[nH]1 | no (0) |
| O=S(=O)(c1ccccc1)n1cc(-c2c[n+]3cccnc3[nH]2)c2ccccc21.[Br-] | no (0) |
| Cc1nc(N)[nH]c1-c1cn(S(=O)(=O)c2cccc3ccccc23)c2ccccc12.Cl | yes (1) |
| COc1ccc2c(c1)c(-c1[nH]c(NC(=O)Cc3ccccc3)nc1C)cn2S(=O)(=O)c1ccccc1 | yes (1) |
| CC(=O)Nc1nc(C)c(-c2cn(S(=O)(=O)c3ccccc3)c3ccccc23)[nH]1 | no (0) |

----------
Catalogue of inhibition readings, one per entry.
biological target: UniProt:P43140; assay: Displacement of [3H] prazosin from rat alpha 1A adrenergic receptor at 10^-6 M measured after 60 mins by scintillation counter method relative to control
Sequence (P43140 whole entry): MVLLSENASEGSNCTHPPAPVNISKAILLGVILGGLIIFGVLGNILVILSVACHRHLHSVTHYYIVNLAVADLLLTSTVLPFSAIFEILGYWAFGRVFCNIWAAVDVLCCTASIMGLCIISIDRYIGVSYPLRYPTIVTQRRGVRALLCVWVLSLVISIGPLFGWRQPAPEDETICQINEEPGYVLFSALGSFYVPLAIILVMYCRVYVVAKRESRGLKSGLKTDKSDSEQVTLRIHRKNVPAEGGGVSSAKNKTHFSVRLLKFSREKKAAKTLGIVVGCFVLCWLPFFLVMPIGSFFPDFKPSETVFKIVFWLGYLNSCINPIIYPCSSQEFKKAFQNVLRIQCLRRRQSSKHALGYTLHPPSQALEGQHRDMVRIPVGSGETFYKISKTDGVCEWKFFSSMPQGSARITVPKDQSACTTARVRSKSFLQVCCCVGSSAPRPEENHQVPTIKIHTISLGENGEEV

| structure_smiles_string | tested_on | value_units | inhibition |
| --- | --- | --- | --- |
| CC(=O)Nc1nc(C)c(-c2ccc3ccn(S(=O)(=O)c4ccccc4)c3c2)[nH]1 | UniProt:P43140 | % | -4.2 |
| Cc1nc(N)[nH]c1-c1cn(S(=O)(=O)c2cccc3ccccc23)c2ccccc12.Cl | UniProt:P43140 | % | 10.7 |
| CC(=O)Nc1nc(C)c(-c2cn(S(=O)(=O)c3ccccc3)c3ccccc23)[nH]1 | UniProt:P43140 | % | -1.5 |
| COc1ccc2c(c1)c(-c1[nH]c(NCC(F)F)nc1C)cn2S(=O)(=O)c1ccccc1 | UniProt:P43140 | % | 4 |
| Cc1nc(N)[nH]c1-c1cn(S(=O)(=O)c2ccccc2)c2ccccc12 | UniProt:P43140 | % | 12.2 |
| COc1ccc2c(c1)c(-c1cnc(N)[nH]1)cn2S(=O)(=O)c1ccccc1 | UniProt:P43140 | % | 33.1 |

----------
experiment: in vitro; conditions: rat, liver microsomes

| structure_smiles_string | half-life |
| --- | --- |
| COc1ccc2c(c1)c(-c1[nH]c(NCC(F)F)nc1C)cn2S(=O)(=O)c1ccccc1 | 36 min |

----------
tested on: HepG2; assay: Cytotoxicity against human HepG2 cells assessed as cell membrane damage measured after 24 hrs by Toxilight assay; assay type: cell-based; details: HepG2, 24 h
pIC50: −log10 of the molar value.
endpoint: pIC50

| structure_smiles_string | reported_result |
| --- | --- |
| Cc1nc(N)[nH]c1-c1cn(S(=O)(=O)c2cccc3ccccc23)c2ccccc12.Cl | 4.74 |

----------
biological target: 5-hydroxytryptamine receptor 2A (Homo sapiens); assay: Displacement of [3H]ketanserin from human 5HT2A receptor expressed in CHOK1 cells incubated for 1 hr by liquid scintillation counter method; format: cell-based; details: read-out: Ki
pKi: −log10 of the molar value.

| structure_smiles_string | pKi |
| --- | --- |
| CC(=O)Nc1nc(C)c(-c2ccc3ccn(S(=O)(=O)c4ccccc4)c3c2)[nH]1 | < 5.00 |
| COc1ccc2c(c1)c(-c1[nH]c3nccc[n+]3c1C)cn2S(=O)(=O)c1ccccc1.[Br-] | < 5.00 |
| COc1ccc2c(c1)c(-c1[nH]c(NC(C)=O)nc1C)cn2S(=O)(=O)c1ccccc1 | < 5.00 |
| COc1ccc2c(c1)c(-c1[nH]c(NC(C)=O)nc1C)cn2S(=O)(=O)c1cccc2ccccc12 | < 5.00 |
| COc1ccc2c(c1)c(-c1[nH]c(NC(C)=O)nc1C)cn2S(=O)(=O)c1cccc(F)c1 | < 5.00 |
| CCC(=O)Nc1nc(C)c(-c2cn(S(=O)(=O)c3cccc4ccccc34)c3ccccc23)[nH]1 | < 5.00 |
| Cl.Nc1ncc(-c2cn(S(=O)(=O)c3ccccc3)c3ccccc23)[nH]1 | 6.05 |
| Cc1nc(N)[nH]c1-c1cn(S(=O)(=O)c2cccc3ccccc23)c2ccccc12.Cl | 6.31 |
| COc1ccc2c(c1)c(-c1[nH]c(NC(C)=O)nc1C)cn2S(=O)(=O)c1ccc2ccccc2c1 | < 5.00 |

----------
Catalogue of microsomal CLint readings, one per entry.
assay: in vitro; details: rat, microsomes
endpoint: microsomal CLint (µL/min/mg)

| molecule | endpoint | reported_result |
| --- | --- | --- |
| Cc1nc(N)[nH]c1-c1cn(S(=O)(=O)c2cccc3ccccc23)c2ccccc12.Cl | microsomal CLint | 60.3 |
| O=S(=O)(c1ccccc1)n1cc(-c2c[n+]3cccnc3[nH]2)c2ccccc21.[Br-] | microsomal CLint | 230 |
| COc1cc2c(cc1OC)C(=O)C(CC1CCN(Cc3ccccc3)CC1)C2 (configuration not stated) | microsomal CLint | 17.6 |
| Cc1nc(N)[nH]c1-c1ccc2ccn(S(=O)(=O)c3ccccc3)c2c1.Cl | microsomal CLint | 104 |
| Fc1ccc2c(CCNCc3cccc(OCC(F)(F)C(F)F)c3)c[nH]c2c1 | microsomal CLint | 99.3 |
| CC(=O)Nc1nc(C)c(-c2cn(S(=O)(=O)c3ccccc3)c3ccccc23)[nH]1 | microsomal CLint | 7.3 |
| CCC(=O)Nc1nc(C)c(-c2cn(S(=O)(=O)c3ccccc3)c3ccc(OC)cc23)[nH]1 | microsomal CLint | 17.1 |

----------
molecular target: Muscarinic acetylcholine receptor M1 (Homo sapiens) (UniProt P11229); assay: Displacement of [3H] pirenzepine from human recombinant muscarinic M1 receptor at 10^-6 M measured after 60 mins by scintillation counter method relative to control
Sequence (P11229 whole entry): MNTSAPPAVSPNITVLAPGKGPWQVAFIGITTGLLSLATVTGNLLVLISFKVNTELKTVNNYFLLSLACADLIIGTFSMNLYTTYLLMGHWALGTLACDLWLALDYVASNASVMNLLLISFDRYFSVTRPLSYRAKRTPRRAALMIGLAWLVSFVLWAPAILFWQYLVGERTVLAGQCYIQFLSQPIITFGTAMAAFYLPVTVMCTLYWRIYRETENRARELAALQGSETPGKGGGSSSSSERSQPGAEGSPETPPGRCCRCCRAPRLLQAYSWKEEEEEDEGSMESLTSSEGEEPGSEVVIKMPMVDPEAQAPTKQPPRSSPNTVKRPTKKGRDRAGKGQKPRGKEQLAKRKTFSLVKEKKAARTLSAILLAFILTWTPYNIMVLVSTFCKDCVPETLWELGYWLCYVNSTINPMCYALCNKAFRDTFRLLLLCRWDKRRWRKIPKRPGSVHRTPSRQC

| structure_smiles_string | inhibition [%] |
| --- | --- |
| COc1ccc2c(c1)c(-c1cnc(N)[nH]1)cn2S(=O)(=O)c1ccccc1 | 6.7 |
| COc1ccc2c(c1)c(-c1[nH]c(NCC(F)F)nc1C)cn2S(=O)(=O)c1ccccc1 | -4 |
| Cc1nc(N)[nH]c1-c1cn(S(=O)(=O)c2cccc3ccccc23)c2ccccc12.Cl | -0.3 |
| Cc1nc(N)[nH]c1-c1cn(S(=O)(=O)c2ccccc2)c2ccccc12 | 3.8 |

----------
biological target: 5-hydroxytryptamine receptor 1A (Homo sapiens); experiment: Displacement of [3H]-8-OH-DPAT from human 5HT1A receptor expressed in HEK293 cells incubated for 1 hr by liquid scintillation counter method; assay type: cell-based; details: read-out: Ki
Sequence (P08908 whole entry): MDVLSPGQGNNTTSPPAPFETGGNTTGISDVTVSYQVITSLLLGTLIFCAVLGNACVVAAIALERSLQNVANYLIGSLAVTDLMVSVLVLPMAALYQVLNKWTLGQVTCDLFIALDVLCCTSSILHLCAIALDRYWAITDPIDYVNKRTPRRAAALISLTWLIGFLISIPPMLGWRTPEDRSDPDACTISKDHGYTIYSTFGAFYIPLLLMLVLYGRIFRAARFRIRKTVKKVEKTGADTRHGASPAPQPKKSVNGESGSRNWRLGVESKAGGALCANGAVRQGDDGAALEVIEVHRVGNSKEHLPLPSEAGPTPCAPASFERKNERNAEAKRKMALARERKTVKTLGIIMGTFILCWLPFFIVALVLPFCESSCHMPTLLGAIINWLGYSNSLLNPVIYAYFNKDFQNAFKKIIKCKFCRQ
pKi: −log10 of the molar value.
Catalogue of pKi readings, one per entry.
endpoint: pKi

| structure_smiles_string | endpoint | reported_result |
| --- | --- | --- |
| COc1ccc2c(c1)c(-c1[nH]c(N)nc1C)cn2S(=O)(=O)c1cccc(F)c1.Cl | pKi | < 5.00 |
| O=S(=O)(c1ccccc1)n1cc(-c2c[n+]3cccnc3[nH]2)c2ccccc21.[Br-] | pKi | < 5.00 |
| CC(=O)N1CCCn2c1nc(C)c2-c1cn(S(=O)(=O)c2ccccc2)c2ccccc12 | pKi | < 5.00 |
| COc1ccc2c(c1)c(-c1cnc(NC(C)=O)[nH]1)cn2S(=O)(=O)c1ccccc1 | pKi | < 5.00 |
| CC(=O)Nc1nc(C)c(-c2cn(S(=O)(=O)c3ccccc3)c3ccccc23)[nH]1 | pKi | < 5.00 |

----------
biological target: 5-hydroxytryptamine receptor 2A (Homo sapiens, UniProt P28223); assay: Displacement of [3H]ketanserin from human 5HT2A receptor expressed in CHOK1 cells incubated for 1 hr by liquid scintillation counter method; type: cell-based; details: read-out: Ki
Sequence (P28223 whole entry): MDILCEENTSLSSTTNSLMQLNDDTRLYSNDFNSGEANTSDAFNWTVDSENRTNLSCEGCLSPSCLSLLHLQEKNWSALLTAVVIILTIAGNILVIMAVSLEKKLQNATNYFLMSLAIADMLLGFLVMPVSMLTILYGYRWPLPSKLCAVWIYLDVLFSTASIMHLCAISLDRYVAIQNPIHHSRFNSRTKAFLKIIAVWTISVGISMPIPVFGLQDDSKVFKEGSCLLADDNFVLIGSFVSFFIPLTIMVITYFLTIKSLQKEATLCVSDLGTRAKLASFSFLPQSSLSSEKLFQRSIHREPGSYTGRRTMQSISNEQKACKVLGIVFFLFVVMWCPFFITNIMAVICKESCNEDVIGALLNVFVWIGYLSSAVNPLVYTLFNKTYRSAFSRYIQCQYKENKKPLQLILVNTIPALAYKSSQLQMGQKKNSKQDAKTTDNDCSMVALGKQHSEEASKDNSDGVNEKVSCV

| structure_smiles_string | tested_on | value_units | bound_type | Ki |
| --- | --- | --- | --- | --- |
| CCc1nc(N)[nH]c1-c1cn(S(=O)(=O)c2ccccc2)c2ccccc12.Cl | 5-hydroxytryptamine receptor 2A (Homo sapiens, UniProt P28223) | nM | = | 107 |
| CCc1nc(NC(C)=O)[nH]c1-c1cn(S(=O)(=O)c2ccccc2)c2ccccc12 | 5-hydroxytryptamine receptor 2A (Homo sapiens, UniProt P28223) | nM | > | 10000 |
| CCC(=O)Nc1nc(C)c(-c2cccc3c2ccn3S(=O)(=O)c2ccccc2)[nH]1 | 5-hydroxytryptamine receptor 2A (Homo sapiens, UniProt P28223) | nM | > | 10000 |
| COc1ccc2c(c1)c(-c1nc(N)sc1C)cn2S(=O)(=O)c1ccccc1 | 5-hydroxytryptamine receptor 2A (Homo sapiens, UniProt P28223) | nM | = | 2460 |
| CCc1nc(N)[nH]c1-c1cn(S(=O)(=O)c2ccccc2)c2ccc(OC)cc12.Cl | 5-hydroxytryptamine receptor 2A (Homo sapiens, UniProt P28223) | nM | = | 661 |
| COc1ccc2c(c1)c(-c1cnc(N)[nH]1)cn2S(=O)(=O)c1ccccc1 | 5-hydroxytryptamine receptor 2A (Homo sapiens, UniProt P28223) | nM | = | 794 |
| CC(=O)N1CCCn2c1nc(C)c2-c1cn(S(=O)(=O)c2ccccc2)c2ccccc12 | 5-hydroxytryptamine receptor 2A (Homo sapiens, UniProt P28223) | nM | > | 10000 |
| Cc1nc(N)[nH]c1-c1ccc2ccn(S(=O)(=O)c3ccccc3)c2c1.Cl | 5-hydroxytryptamine receptor 2A (Homo sapiens, UniProt P28223) | nM | = | 1170 |
| Cc1nc(N)[nH]c1-c1cn(S(=O)(=O)c2ccccc2)c2ccccc12 | 5-hydroxytryptamine receptor 2A (Homo sapiens, UniProt P28223) | nM | = | 100 |
| COc1ccc2c(c1)c(-c1cnc(NC(C)=O)[nH]1)cn2S(=O)(=O)c1cccc(F)c1 | 5-hydroxytryptamine receptor 2A (Homo sapiens, UniProt P28223) | nM | > | 10000 |
| COc1ccc2c(c1)c(-c1[nH]c(N)nc1C)cn2S(=O)(=O)c1ccccc1.Cl | 5-hydroxytryptamine receptor 2A (Homo sapiens, UniProt P28223) | nM | = | 676 |
| CC(=O)N1CCn2c1nc(C)c2-c1cn(S(=O)(=O)c2ccccc2)c2ccccc12 | 5-hydroxytryptamine receptor 2A (Homo sapiens, UniProt P28223) | nM | > | 10000 |
| COc1ccc2c(c1)c(-c1[nH]c(NCCc3ccccc3)nc1C)cn2S(=O)(=O)c1ccccc1 | 5-hydroxytryptamine receptor 2A (Homo sapiens, UniProt P28223) | nM | = | 1910 |
| CCC(=O)Nc1nc(C)c(-c2cn(S(=O)(=O)c3cccc(F)c3)c3ccc(OC)cc23)[nH]1 | 5-hydroxytryptamine receptor 2A (Homo sapiens, UniProt P28223) | nM | > | 10000 |
| COc1ccc2c(c1)c(-c1[nH]c(NC(=O)Cc3ccccc3)nc1C)cn2S(=O)(=O)c1ccccc1 | 5-hydroxytryptamine receptor 2A (Homo sapiens, UniProt P28223) | nM | > | 10000 |
| Cl.Nc1ncc(-c2cccc3c2ccn3S(=O)(=O)c2ccccc2)[nH]1 | 5-hydroxytryptamine receptor 2A (Homo sapiens, UniProt P28223) | nM | = | 2290 |
| CCc1nc(NC(C)=O)[nH]c1-c1cn(S(=O)(=O)c2ccccc2)c2ccc(OC)cc12 | 5-hydroxytryptamine receptor 2A (Homo sapiens, UniProt P28223) | nM | > | 10000 |
| COc1ccc2c(c1)c(-c1[nH]c(N)nc1C)cn2S(=O)(=O)c1cccc(F)c1.Cl | 5-hydroxytryptamine receptor 2A (Homo sapiens, UniProt P28223) | nM | = | 1120 |

Origin of the recorded values: ChEMBL document CHEMBL4351001
